# Target: HLA-A*02:01 (Homo sapiens, UniProt P04439, D140Y/D185E/D98H/E176V/E277Q/G131W/G231S/I119V/I121R/I166T/I218V/L300P/L318F/N151K/N90K/P208A/P217A/Q86G/Q94H/R138H/R169H/T345S)
# Procedure details: MHC binding assay (UV-ligand exchange, beta2m ELISA, peptide exchange yield)
# Applied conditions: binding of HLA-class I restricted peptides to HLA-A*02:01, ranged by peptide exchange yield (UV-ligand exchange, β2m ELISA)
Quantity measured: Peptide exchange

Consider the following illustrative entries.
| Substance | Assay result |
| --- | --- |
| 253 (GLDAATATV; listed as Homo sapiens) [compound 253] | ″++″ (≥20% = ++) |
| 31 (YLAPELFVNV; listed as Homo sapiens) [compound 31] | ″++″ (≥20% = ++) |
| 255 (VLASYNLTV; listed as Homo sapiens) [compound 255] | ″+++″ (≥50% = +++) |
| 505 (SLAPGDVVRQV; listed as Homo sapiens) [compound 505] | ″++″ (≥20% = ++) |

Next substance, please.
I'd like to know its Peptide exchange. The substance in question is 449 (KLAEGLDIQL; listed as Homo sapiens) [compound 449]
″+++″ (≥50% = +++)

###

# Target: HLA-A*02:01 (Homo sapiens, UniProt P04439, D140Y/D185E/D98H/E176V/E277Q/G131W/G231S/I119V/I121R/I166T/I218V/L300P/L318F/N151K/N90K/P208A/P217A/Q86G/Q94H/R138H/R169H/T345S)
# Procedure details: MHC binding assay (UV-ligand exchange, beta2m ELISA, peptide exchange yield)
# Applied conditions: binding of HLA-class I restricted peptides to HLA-A*02:01, ranged by peptide exchange yield (UV-ligand exchange, β2m ELISA)
Quantity measured: Peptide exchange

Consider the following illustrative entries.
| Substance | Peptide exchange |
| --- | --- |
| 126 (VLAYFLPEA; listed as Homo sapiens) [compound 126] | ″++++″ (≥75% = ++++) |
| 148 (ALNPEIVSV; listed as Homo sapiens) [compound 148] | ″++″ (≥20% = ++) |
| 120 (ALLGIPLTLV; listed as Homo sapiens) [compound 120] | ″+++″ (≥50% = +++) |
| 397 (YLFGERLLEC; listed as Homo sapiens) [compound 397] | ″+++″ (≥50% = +++) |
| 557 (KLYDDMIRL; listed as Homo sapiens) [compound 557] | ″+++″ (≥50% = +++) |

Next substance, please.
I'd like to know its Peptide exchange. The substance in question is 219 (KLSDIGITV; listed as Homo sapiens) [compound 219]
″+++″ (≥50% = +++)

###

# Target: HLA-A*02:01 (Homo sapiens, UniProt P04439, D140Y/D185E/D98H/E176V/E277Q/G131W/G231S/I119V/I121R/I166T/I218V/L300P/L318F/N151K/N90K/P208A/P217A/Q86G/Q94H/R138H/R169H/T345S)
# Procedure details: MHC binding assay (UV-ligand exchange, beta2m ELISA, peptide exchange yield)
# Applied conditions: binding of HLA-class I restricted peptides to HLA-A*02:01, ranged by peptide exchange yield (UV-ligand exchange, β2m ELISA)
Quantity measured: Peptide exchange

Consider the following illustrative entries.
| Substance | Peptide exchange |
| --- | --- |
| 73 (NIFDLQIYV; listed as Homo sapiens) [compound 73] | ″+++″ (≥50% = +++) |
| 189 (ALQRKLPYV; listed as Homo sapiens) [compound 189] | ″+++″ (≥50% = +++) |
| 407 (YLMDLINFL; listed as Homo sapiens) [compound 407] | ″+++″ (≥50% = +++) |
| 50 (SLSELEALM; listed as Homo sapiens) [compound 50] | ″+++″ (≥50% = +++) |
| 327 (GLAPFTEGISFV; listed as Homo sapiens) [compound 327] | ″+++″ (≥50% = +++) |

I'd like to know its Peptide exchange. The substance in question is 244 (SLFGGTEITI; listed as Homo sapiens) [compound 244]
″+++″ (≥50% = +++)

I'd like to know its Peptide exchange. The substance in question is 487 (LLINSVFHV; listed as Homo sapiens) [compound 487]
″+++″ (≥50% = +++)

I'd like to know its Peptide exchange. The substance in question is 249 (LLDGFLVNV; listed as Homo sapiens) [compound 249]
″+++″ (≥50% = +++)

I'd like to know its Peptide exchange. The substance in question is 155 (RVANLHFPSV; listed as Homo sapiens) [compound 155]
″+++″ (≥50% = +++)

I'd like to know its Peptide exchange. The substance in question is 619 (ALQDRVPLA; listed as Homo sapiens) [compound 619]
″+++″ (≥50% = +++)

I'd like to know its Peptide exchange. The substance in question is 315 (YLQDVVEQA; listed as Homo sapiens) [compound 315]
″+++″ (≥50% = +++)

I'd like to know its Peptide exchange. The substance in question is 263 (LLVSNLDFGV; listed as Homo sapiens) [compound 263]
″+++″ (≥50% = +++)

I'd like to know its Peptide exchange. The substance in question is 314 (ALIAEGIALV; listed as Homo sapiens) [compound 314]
″+++″ (≥50% = +++)

I'd like to know its Peptide exchange. The substance in question is 140 (YMDAPKAAL; listed as Homo sapiens) [compound 140]
″++″ (≥20% = ++)

I'd like to know its Peptide exchange. The substance in question is 130 (FLWNGEDSALL; listed as Homo sapiens) [compound 130]
″+++″ (≥50% = +++)

I'd like to know its Peptide exchange. The substance in question is 615 (VLPPDTDPA; listed as Homo sapiens) [compound 615]
″++″ (≥20% = ++)

I'd like to know its Peptide exchange. The substance in question is 265 (LLFGGTKTV; listed as Homo sapiens) [compound 265]
″++″ (≥20% = ++)

I'd like to know its Peptide exchange. The substance in question is 319 (SLEPQIQPV; listed as Homo sapiens) [compound 319]
″++″ (≥20% = ++)

###

# Target: HLA-A*02:01 (Homo sapiens, UniProt P04439, D140Y/D185E/D98H/E176V/E277Q/G131W/G231S/I119V/I121R/I166T/I218V/L300P/L318F/N151K/N90K/P208A/P217A/Q86G/Q94H/R138H/R169H/T345S)
# Procedure details: MHC binding assay (UV-ligand exchange, beta2m ELISA, peptide exchange yield)
# Applied conditions: binding of HLA-class I restricted peptides to HLA-A*02:01, ranged by peptide exchange yield (UV-ligand exchange, β2m ELISA)
# Source text: Candidate peptides for T cell based therapies according to the present invention were further tested for their MHC binding capacity (affinity). The individual peptide-MHC complexes were produced by UV-ligand exchange, where a UV-sensitive peptide is cleaved upon UV-irradiation, and exchanged with the peptide of interest as analyzed. Only peptide candidates that can effectively bind and stabilize the peptide-receptive MHC molecules prevent dissociation of the MHC complexes. […]
Quantity measured: Peptide exchange

Consider the following illustrative entries.
| Substance | Peptide exchange |
| --- | --- |
| 109 (IILSILEQA; listed as Homo sapiens) [compound 109] | ″++++″ (≥75% = ++++) |
| 1 (SLMEPPAVLLL; listed as Homo sapiens) [compound 1] | ″+++″ (≥50% = +++) |
| 509 (FLFDTKPLIV; listed as Homo sapiens) [compound 509] | ″+++″ (≥50% = +++) |
| 8 (FTLGNVVGMYL; listed as Homo sapiens) [compound 8] | ″++++″ (≥75% = ++++) |
| 606 (ALWETEVYI; listed as Homo sapiens) [compound 606] | ″+++″ (≥50% = +++) |

I'd like to know its Peptide exchange. The substance in question is 593 (GLPRFGIEMV; listed as Homo sapiens) [compound 593]
″+++″ (≥50% = +++)

I'd like to know its Peptide exchange. The substance in question is 51 (LLPDLEFYV; listed as Homo sapiens) [compound 51]
″++++″ (≥75% = ++++)

I'd like to know its Peptide exchange. The substance in question is 245 (SMIDDLLGV; listed as Homo sapiens) [compound 245]
″+++″ (≥50% = +++)

###

# Target: HLA-A*02:01 (Homo sapiens, UniProt P04439, D140Y/D185E/D98H/E176V/E277Q/G131W/G231S/I119V/I121R/I166T/I218V/L300P/L318F/N151K/N90K/P208A/P217A/Q86G/Q94H/R138H/R169H/T345S)
# Procedure details: MHC binding assay (UV-ligand exchange, beta2m ELISA, peptide exchange yield)
# Applied conditions: binding of HLA-class I restricted peptides to HLA-A*02:01, ranged by peptide exchange yield (UV-ligand exchange, β2m ELISA)
Quantity measured: Peptide exchange

Consider the following illustrative entries.
| Substance | Peptide exchange |
| --- | --- |
| 128 (YLFDDPLSAV; listed as Homo sapiens) [compound 128] | ″++″ (≥20% = ++) |
| 386 (ILFRYPLTI; listed as Homo sapiens) [compound 386] | ″+++″ (≥50% = +++) |
| 17 (GLLPGDRLVSV; listed as Homo sapiens) [compound 17] | ″+++″ (≥50% = +++) |
| 171 (LLLPLQILL; listed as Homo sapiens) [compound 171] | ″+++″ (≥50% = +++) |
| 201 (RLVDYLEGI; listed as Homo sapiens) [compound 201] | ″+++″ (≥50% = +++) |

I'd like to know its Peptide exchange. The substance in question is 298 (VMITKLVEV; listed as Homo sapiens) [compound 298]
″+++″ (≥50% = +++)

I'd like to know its Peptide exchange. The substance in question is 57 (TLAELQPPVQL; listed as Homo sapiens) [compound 57]
″+++″ (≥50% = +++)

I'd like to know its Peptide exchange. The substance in question is 168 (KILDADIQL; listed as Homo sapiens) [compound 168]
″++++″ (≥75% = ++++)

I'd like to know its Peptide exchange. The substance in question is 412 (YLDDLNEGVYI; listed as Homo sapiens) [compound 412]
″++″ (≥20% = ++)

I'd like to know its Peptide exchange. The substance in question is 229 (RLPGPLGTV; listed as Homo sapiens) [compound 229]
″++″ (≥20% = ++)

I'd like to know its Peptide exchange. The substance in question is 605 (KLYEAVPQL; listed as Homo sapiens) [compound 605]
″+++″ (≥50% = +++)

I'd like to know its Peptide exchange. The substance in question is 104 (STMEQNFLL; listed as Homo sapiens) [compound 104]
″++++″ (≥75% = ++++)

I'd like to know its Peptide exchange. The substance in question is 602 (YLLEQIKLIEV; listed as Homo sapiens) [compound 602]
″++++″ (≥75% = ++++)

I'd like to know its Peptide exchange. The substance in question is 142 (FLFATPVFI; listed as Homo sapiens) [compound 142]
″+++″ (≥50% = +++)

I'd like to know its Peptide exchange. The substance in question is 248 (FLFPNQYVDV; listed as Homo sapiens) [compound 248]
″+++″ (≥50% = +++)
